These data points were gathered from the DeepSol protein solubility set.

Experiment: soluble on expression in E. coli; label from the status in PepcDB or PDB records
MEASURED_ATTRIBUTE: soluble on expression in E. coli

FLNTISTKDFKQKMADKTTGFVYVGRPTCEDCQAFQPILKKELEKRQPDQKMAYYNTDKASEKSRDDMIALLKKMDIDSVPTMVYLKDGKVASTYAATDEPAKLTNWMNKVSG	not soluble
MGINVQFRPMTIHDIDEVVQVERASFTSPWSRESFYNELMYNRYAKYIVMVYNGRIIGYGGMWLVIDEAHVTNVAVLPQFRGQKLGEALMRRLMDMARQHGAATMTLEVRVSNHVAQSLYRKLGFRNGGIRKRYYPDNFEDALVMWVKLR	not soluble
MSLRPTPAPSFSGVTVDGKPFSSASLKGKAYIVNFFATWCPPCRSEIPDMVQVQKTWASRGFTFVGIAVNEQLPNVKNYMKTQGIIYPVMMATPELIRAFNGYIDGGITGIPTSFVIDASGNVSGVIVGPRSKADFDRIVKMALGAKAATKKGIITITTDPNSSSVDKLAAALEHHHHHH	soluble
MTTRDLFADHAPADDRRIALGEAAVVLRGFALAEATALLAAIDDIARQAPFRHMVTPGGFEMSVALTNCGALGWTSDRRGYRYAARDPQTGQPWPPLPDCFLRLARDAAAAAGFPGFTPDACLINRYVPGARLSLHQDKDEQDYGAPIVSVSLGMPAMFLWGGHRRTDKTLRVPLFHGDVVVWGGPDRLRYHGVLPLKEAAHPLLGAQRINLTLRRAGLEHHHHHH	soluble

====

Assay: soluble on expression in E. coli; label from the status in PepcDB or PDB records
MEASURED_ATTRIBUTE: soluble on expression in E. coli

MRKYTFKTQRPKIVVIGGGTGLPVVLNGLRKQAVDITAVVTVADDGGSSGIIRNYVNVVPPGDIRNVMVALSSWPDLYKDIFQYRFQGDDQFFAGHAIGNLIIAALTEMKSGVFDAVQELSNMMQVDGHVYPAANEALTLHGKFSDGTELVGEAEITAAHKSLERVWVTDKNGKEPQAVQPVIDAIMAADQIVLGPGSLFTSILPNLTIGNIGRAVCESDAEVVYICNIMTQKGETDNFSDADHVRVLNRHLGQNFINTVLVNTEKVPEDYMDFHKFNEVSKQVSHDFRGLREQNCRVISSNFLKLRDNGAFHDGDQVVAELMNLVGHSDVFRLEHHHHHH	soluble
MSLSTRSRIREERKDPLSALAREYGGSKRNALLKWCQKKTEGYQNIDITNFSSSWNDGLAFCALLHTYLPAHIPYQELNSQDKKRNFTLAFQAAESVGIKSTLDINEMARTERPDWQNVMLYVTAIYKYFETEGHHHHHH	soluble
MSLDDHTRDPTVKAPDGNPSGWRTDGQWEHETLRRAVVHGVRLYNSGEFHESHDCFEDEWYNYGRGNTESKFLHGMVQVAAGAYKHFDFEDDDGMRSLFRTSLQYFRGVPNDYYGVDLLDVRTTVTNALSDPSALHGWQIRLDGEYPTCRPEDIEFAESLEHEGHHHHHH	soluble

====

Assay: soluble on expression in E. coli; label from the status in PepcDB or PDB records
MEASURED_ATTRIBUTE: soluble on expression in E. coli

MSLTKYHDLKNKVIVIAGGIKNLGALTAKTFALESVNLVLHYHQAKDSDTANKLKDELEDQGAKVALYQSDLSNEEEVAKLFDFAEKEFGKVDIAINTVGKVLKKPIVETSEAEFDAMDTINNKVAYFFIKQAAKHMNPNGHIITIATSLLAAYTGFYSTYAGNKAPVEHYTRAASKELMKQQISVNAIAPGPMDTSFFYGQETKESTAFHKSQAMGNQLTKIEDIAPIIKFLTTDGWWINGQTIFANGGYTTREGHHHHHH	soluble
MYVMTQSGWLELICGCMFSGKSEELIRRVRRAQFAKQEVKVFKPTIDNRYSEDAVVSHNGNSVIAIPVATPAEMFRYISAATDVVAIDEIQFFSDDIIDVVQTLADCGYRVIAAGLDQDFRGEPFGPVPALMAIAESVTKLQAVCTVCGSPASRTQRLINGAPASYDDPVILVGASEAYEPRCRHHHEVPGKPKKRYNHPLAGHTGE	soluble

====

Assay: soluble on expression in E. coli; label from the status in PepcDB or PDB records
MEASURED_ATTRIBUTE: soluble on expression in E. coli

PKHGKRYRALLEKVDPNKIYTIDEAAHLVKELATAKFDETVEVHAKLGIDPRRSDQNVRGTVSLPHGGRIEFRNDKTGAIHAPVGKASFPPEKLADNIRAFIRALEAHKPEGAKGTFLRSVYVTTTMGPSVRINPHS	soluble
MAPCLENVACVNLSAMPPAPPSPQPVSHKQAATLCRQGRTCALKSGSNESGGSVTSTYTSYRLISQDIGKSLERVSKQPDVARETEYYREKIGSVKSIDDFMADTRLYNYALKAHGLEDMAYAKAFIRKVLTEGASDKNAFANKLSDNRYAELAKSLDFAGLGAAATATEAAKSGVIGNYARQTLEQEAGDDNNGVRLALYFERKAPTIKSGLDFLADDALAQVFRTTFNLPDAFAAADVDKQAALIEKSINIKDLQDPEKVGKLLERFTIMWEMQNPSTTYDPLAVFGSSSGYGISPDLLISINSLKLGGKAAALEHHHHHH	soluble
MEINSREVYVFTPKGDVMSLPQGATPVDFAYAVHTEVGHRCIGARVNGKLVTLDTKLNNGDVIDILTSNAPDAGPSRLEHHHHHH	not soluble
MGSDKIHHHHHHMEYIVRTHKIGIYEKALPKNLSWQDRLSIAKACGFDFVEISIDETDERLARLDWSKAERIELVTAIISTGITIPSMCLSGHRRFPFGSRDEATRQKAFEIMKKAIQLAVDLGIRTIQLAGYDVYYEEQDEGTIQRFQQGLEWAVKLAASHQVTIAVEIMDTQFISSISRWKKWDNIIRSPWFTVYPDLGNLSAWNENVSEELKLGIDKISAIHLKDTYKVTTTSKGQFRDVPFGAGCVDFVQCFRILSELNYRGAFLVEMWTEKAEEPITEIINARRWIEQKMKEGGFQC	not soluble

====

Assay: soluble on expression in E. coli; label from the status in PepcDB or PDB records
MEASURED_ATTRIBUTE: soluble on expression in E. coli

MSQKQEEENPAEETGEEKQDTQEKEGILPERAEEAKLKAKYPSLGQKPGGSDFLMKRLQKGQKYFDSGDYNMAKAKMKNKQLPSAGPDKNLVTGDHIPTPQDLPQRKSSLVTSKLAGGQVE	soluble
GSHMSSGYPGVSWNKRMCAWLAFFYDGASRRSRTFHPKHFNMDKEKARLAAVEFMKTVENNGRKKLEPGGSQFIVTD	soluble

====

Test: soluble on expression in E. coli; label from the status in PepcDB or PDB records
MEASURED_ATTRIBUTE: soluble on expression in E. coli

TPPPTQWSYLCHPRVKEVQDEVDGYFLENWKFPSFKAVRTFLDAKFSEVTCLYFPLALDDRIHFACRLLTVLFLIDDVLEHMSFADGEAYNNRLIPISRGDVLPDRTKPEEFILYDLWESMRAHDAELANEVLEPTFVFMRAQTDRARLSIHELGHYLEYREKDVGKALLSALMRFSMGLRLSADELQDMKALEANCAKQLSVVNDIYSYDKEEEASRTGHKEGAFLCSAVKVLAEESKLGIPATKRVLWSMTREWETVHDEIVAEKIASPDGCSEAAKAYMKGLEYQMSGNEQWSKTTR	soluble
MSLRLYFVRHGKTQWNLEGRLQGSKGDSPLLKESIEQVSELGHYLSDTHFDLVLSSDLPRAKKTTELIMESQKTKAKITYTKDLREWQLGKLEGQKLSIIQAIYPKEMDAFRHNLANFRANNFQAESVYHTTKRVADLVRTLKDSSMKNVLLVGHGANLTASIRSLLGFEPGLLRKAGGLDNASVTILETDDCEHFTLKSWNDTSYRTQVNKISEGHHHHHH	soluble

====

Assay: soluble on expression in E. coli; label from the status in PepcDB or PDB records
MEASURED_ATTRIBUTE: soluble on expression in E. coli

MKSAELKYLDFEDFTKLIALAKEKINPIYSSSFMIYIAAMTGMRFSELLGLTWDNVDFEKGQIYVKRTWDIYKNNFAPTKNDQSVRFLAIDSSTMQVMINYKEQQEKLLKRLEIEPEHPFVFYNIKNGLITNNSLNKQLRNMCKKLGFKKIITCHGLRHTHASTMLYKGINILYVSKRLGHSSLNVTMSVYSHILKLEHHHHHH	not soluble
KYPFLREAGSSFKDRDVTKMSDLIATWDGQDIKGPALIGVPLSKSSISHSGASFAPGTIRQALKHSSAYSAELGEHVVSELLYDLGDIDIHVTDIVKSHHHIFQTMHALLSDHPDWVPLILGGDNSISYSTIKAIAQTKGTTAVIQFDAHHDVRNTEDGGPTNGTPFRRLLDEEIIEGQHLIQLGIREFSNSQAYEAYAKKHNVNIHTMDMIREKGLIPTIKEILPVVQDKTDFIFISVDMDVLDQSHAPGCPAIGPGGLYTDELLEAVKYIAQQPNVAGIEIVEVDPTLDFRDMTSRAAAHVLLHALK	not soluble
MLNIFTTISKINITSLAIGCFDGMHLGHLKLVKCLDENGALLVINKFKGQFLCSNRQKEEISGKKVIEVDFESIKSLDGRDFLSFLKKEFVNLKFIVVGYDFSFGKNRAYNAKDIESLSGIKTIIVDEFSIDGIGVHASLIKDFLSKANLQKAKEFLGRDYSIKGKMIKGQGLGSKELFATINLDCEGYFLPQNGVYVTLLKSQRKTYKSVSFLGVRSSDENFAIESHILEELGENFTQGEFFELEFISFLRENQKFQDLKKLKNQIAKDIEQARELLRKNDER	not soluble
MNLGDLTNFVEKPLAAVSNIVNTPNSAGRYRPFYLRNLLDAVQGRNLNDAVKGKVVLITGGSSGIGAAAAKKIAEAGGTVVLVARTLENLENVANDIRAIRGNGGTAHVYPCDLSDMDAIAVMADQVLGDLGGVDILINNAGRSIRRSLELSYDRIHDYQRTMQLNYLGAVQLILKFIPGMRERHFGHIVNVSSVGVQTRAPRFGAYIASKAALDSLCDALQAETVHDNVRFTTVHMALVRTPMISPTTIYDKFPTLTPDQAAGVITDAIVHRPRRASSPFGQFAAVADAVNPAVMDRVRNRAFNMFGDSSAAKGSESQTDTSELDKRSETFVRATRGIHW	soluble
MEGEYRLTRSYAVVDITAQVDDSAILEPFACVMARARIGPRTRVGAHSVVGVGVSVGADCCIYHHVTLLNCDIGDRCVIHSGVAIGQDGFGFEVDQQTGKVRKKPQELSVRIGNEVEIGANTCIDRGSWRDTLIEDAVKIDNLVQIGHNVQVGANTFICGQAGVAGSTKIGRYCRFGGRSGAVDHLEIGDHVDVAANSVLTRNAPGHAVYAGFPAMPMREWRHQQVTLRRLSRAGKRQVDVSADDPEFPK	not soluble

Which soluble on expression in E. coli is reported for this sequence? MRMKALLIDYGSGNLRSAAKALEAAGFSVAVAQDPKAHEEADLLVLPGQGHFGQVMRAFQESGFVERVRRHLERGLPFLGICVGMQVLYEGSEEAPGVRGLGLVPGEVRRFRAGRVPQMGWNALEFGGAFAPLTGRHFYFANSYYGPLTPYSLGKGEYEGTPFTALLAKENLLAPQFHPEKSGKAGLAFLALARRYFEVL
soluble

Which soluble on expression in E. coli is reported for this sequence? AIAELTGQRLREGDGPDGPADDGAGAQADLEHSLLVAAEKKDEGPYRMEHFRWGSPPKDKRYGGFMTSEKSQTPLVTLFKNAIIKNAYKKGE
soluble
